Subject Of Test: c-Src SH2
Test Method Notes: SH2 binding enrichment of the phosphorylated peptide, bacterial display (enrichment ratio); higher = better substrate or ligand; peptides without Tyr show the background;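 also: peptide library displayed on the E. coli surface as eCPX fusions, selected cells deep-sequenced, score is each peptide's frequency after selection divided by its frequency in the input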
// criterion not met strictly below 0.7 in SH2 binding enrichment; criterion met otherwise

Illustrative cases are given below, each with its answer.
Polymer Sequence | Class Assignment
ALETLYKKAVK [CC2D2A_Y381_E376A] | criterion not met
GEDEPYAEPFA [APBA1_Y183_S184A_YF] | criterion not met
IYLGAYDRFLP [SLC22A5_Y486_V481I] | criterion met
EFQLPYFNTVP [BMPR1A_Y457_M460T_YF] | criterion not met
VNRSGYTLIRK [ATP6V0A2_Y688] | criterion met

[Q] Has NGRQCYSCRGN [PLAUR_Y217_K220R] a recorded SH2 binding enrichment greater than or equal to 0.7?
[A] criterion met

[Q] Is SH2 binding enrichment at least 0.7? Consider AEMKRYSESSS [RAI14_Y869_A870S]
[A] criterion not met
